We begin with a simple list: items and their reported pEC50.
Target: H723R-pendrin (Homo sapiens, UniProt O43511, H723R)
Sequence (O43511 1-780 H723R): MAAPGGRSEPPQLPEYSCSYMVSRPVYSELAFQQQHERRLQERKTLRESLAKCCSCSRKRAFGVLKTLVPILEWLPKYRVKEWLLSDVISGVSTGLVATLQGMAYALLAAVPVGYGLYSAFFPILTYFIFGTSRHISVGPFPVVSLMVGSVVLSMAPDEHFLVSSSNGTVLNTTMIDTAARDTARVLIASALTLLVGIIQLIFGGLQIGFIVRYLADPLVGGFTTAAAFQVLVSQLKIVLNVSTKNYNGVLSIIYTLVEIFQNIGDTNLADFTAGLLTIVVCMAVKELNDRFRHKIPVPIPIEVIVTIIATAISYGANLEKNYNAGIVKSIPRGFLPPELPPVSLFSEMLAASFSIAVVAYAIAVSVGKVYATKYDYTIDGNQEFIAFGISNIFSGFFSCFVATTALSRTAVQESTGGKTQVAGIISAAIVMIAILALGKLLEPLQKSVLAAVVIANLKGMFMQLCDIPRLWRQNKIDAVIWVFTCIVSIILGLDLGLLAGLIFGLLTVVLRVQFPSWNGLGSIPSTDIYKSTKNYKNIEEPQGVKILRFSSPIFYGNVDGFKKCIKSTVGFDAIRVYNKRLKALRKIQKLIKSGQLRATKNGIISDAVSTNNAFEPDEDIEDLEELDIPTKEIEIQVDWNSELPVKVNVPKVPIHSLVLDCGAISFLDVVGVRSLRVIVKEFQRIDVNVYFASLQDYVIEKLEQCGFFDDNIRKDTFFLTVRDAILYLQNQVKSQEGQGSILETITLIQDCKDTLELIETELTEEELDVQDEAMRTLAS
Assay: YFP fluorescence quenching assay (Cl−/I− exchange activity of pendrin)
Conditions: PANC-1 cells stably expressing human H723R-pendrin and YFP-F46L/H148Q/I152L; compound incubation 20-24 hours; iodide influx
pEC50: −log10 of the molar value.

Ask: Please report the measured pEC50 for NC1=C(c2ccnc(-c3ccc(O)c(O)c3)n2)C(=O)CN1c1ccccc1F
Reply: > 5.30

Ask: Please report the measured pEC50 for NC1=C(c2cncc(-c3cc(O)cc(O)c3)n2)C(=O)CN1c1ccccc1Cl
Reply: < 5.00

Ask: Please report the measured pEC50 for COc1ccc(-c2cncc(C3=C(N)N(CC4CCCC4)CC3=O)n2)cc1OC
Reply: 5.00 to 5.30

# input for lookup
Ask: Please report the measured pEC50 for COc1ccc(-c2cncc(C3=C(N)N(CCC(F)(F)F)CC3=O)c2)cc1OC
Reply: < 5.00

---

We begin with a simple list: items and their reported EC50.
molecular target: H723R-pendrin (Homo sapiens, UniProt O43511, H723R); construct: expressed in transfected cells; host or cells: PANC-1; test: YFP fluorescence quenching assay (Cl−/I− exchange activity of pendrin); assay type: cell-based; details: PANC-1 cells stably expressing human H723R-pendrin and YFP-F46L/H148Q/I152L; compound incubation 20-24 hours; iodide influx

Record excerpt, results attached:
Ask: Please report the measured EC50 for NC1=C(c2nccc(-c3ccc(O)c(O)c3)n2)C(=O)CN1CC1CCCC1
Reply: 5 to 10 µM

Ask: Please report the measured EC50 for COc1ccc(-c2cccc(C3=C(N)N(c4ccccc4F)CC3=O)n2)cc1OC
Reply: > 10 µM

Ask: Please report the measured EC50 for NC1=C(c2ccnc(-c3ccc(O)c(O)c3)c2)C(=O)CN1CC1CCCC1
Reply: > 10 µM

# input for lookup
Ask: Please report the measured EC50 for NC1=C(c2cncc(-c3ccc(O)c(O)c3)n2)C(=O)CN1c1cccnc1Cl
Reply: > 10 µM

The measured values listed here are drawn from patent US20250340537A1.
